System: U-266
Assay Method Text: Cytotoxicity against human U266B1 cells measured after 8 days
Assay type: functional, cell-based
Stated Conditions: U-266, 192 h
Property: IC50; scope: individual compounds
Number only, in µM; omit the unit.

# Smiles Repr, Meas Value
measured = [
    ("C/C=C/Cn1cc(-c2ccc(C(C)(C)O)cc2OC)c2cc[nH]c2c1=O", 20),
]

// query Give U-266 IC50 for the following compound: `C/C=C/Cn1cc(-c2ccc(C(=O)N3CCOCC3)cc2)c2cc[nH]c2c1=O`
// result 20

----------
Tested on: CGTH-W-1
Assay Method Text: Cytotoxicity against human CGTH-W-1 cells measured after 8 days
Assay type: functional, cell-based
Stated Conditions: CGTH-W-1, 192 h
Recorded Endpoint: pIC50
FYI, pIC50 means -log10 of a concentration in mol per litre.

# Smiles Repr, Target Of Assay, pIC50
records = [
    ("C/C=C/Cn1cc(-c2ccc(C(=O)N3CCOCC3)cc2)c2cc[nH]c2c1=O", "CGTH-W-1", 4.70),
]

// query Supply pIC50 measured with CGTH-W-1 for `C/C=C/Cn1cc(-c2ccc(C(C)(C)O)cc2OC)c2cc[nH]c2c1=O` .
// result 4.70

All figures here come from ChEMBL document CHEMBL5260810.
